Just for reference, the supplement of paper PMC5998384 is where these values come from.

Property: solubility in G1/S (log2); scope: individual sequences
- Tested on: HeLa Kyoto
- MEASUREMENT_PROTOCOL: solubility in G1/S (NP-40 vs SDS abundance) (log2 ratio); higher = more soluble
- CONDITION_PARAMETERS: cell cycle stage: G1/S
Format: numeric value only, no unit, no commentary.

Use the examples below as a reference point.
sequence_entry="MDFLMSGLAACGACVFTNPLEVVKTRMQLQGELQAPGTYQRHYRNVFHAFITIGKVDGLAALQKGLAPALLYQFLMNGIRLGTYGLAEAGGYLHTAEGTHSPARSAAAGAMAGVMGAYLGSPIYMVKTHLQAQAASEIAVGHQYKHQGMFQALTEIGQKHGLVGLWRGALGGLPRVIVGSSTQLCTFSSTKDLLSQWEIFPPQSWKLALVAAMMSGIAVVLAMAPFDVACTRLYNQPTDAQGKGLMYRGILDALLQTARTEGIFGMYKGIGASYFRLGPHTILSLFFWDQLRSLYYTDTK [SLC25A35]" reported_measurement=0.0544
sequence_entry="MSDGDYDYLIKFLALGDSGVGKTSVLYQYTDGKFNSKFITTVGIDFREKRVVYRASGPDGATGRGQRIHLQLWDTAGQERFRSLTTAFFRDAMGFLLLFDLTNEQSFLNVRNWISQLQMHAYCENPDIVLCGNKSDLEDQRVVKEEEAIALAEKYGIPYFETSAANGTNISQAIEMLLDLIMKRMERCVDKSWIPEGVVRSNGHASTDQLSEEKEKGACGC [RAB27A]" reported_measurement=0.222

Turning to the following sequence.
(Q) Specify reported solubility in G1/S (log2) for the sequence shown: MQWLRVRESPGEATGHRVTMGTAALGPVWAALLLFLLMCEIPMVELTFDRAVASGCQRCCDSEDPLDPAHVSSASSSGRPHALPEIRPYINITILKGDKGDPGPMGLPGYMGREGPQGEPGPQGSKGDKGEMGSPGAPCQKRFFAFSVGRKTALHSGEDFQTLLFERVFVNLDGCFDMATGQFAAPLRGIYFFSLNVHSWNYKETYVHIMHNQKEAVILYAQPSERSIMQSQSVMLDLAYGDRVWVRLFKRQRENAIYSNDFDTYITFSGHLIKAEDD [C1QTNF6]
(A) 0.0492

----------
- System: HeLa Kyoto
- MEASUREMENT_PROTOCOL: solubility in G1/S (NP-40 vs SDS abundance) (log2 ratio); higher = more soluble
- CONDITION_PARAMETERS: cell cycle stage: G1/S
Overview of reported solubility in G1/S (log2) across a group of sequences:
# respond with the number and nothing more

(Q) Quick one: give measured solubility in G1/S (log2) for MDGDGDPESVGQPEEASPEEQPEEASAEEERPEDQQEEEAAAAAAYLDELPEPLLLRVLAALPAAELVQACRLVCLRWKELVDGAPLWLLKCQQEGLVPEGGVEEERDHWQQFYFLSKRRRNLLRNPCGEEDLEGWCDVEHGGDGWRVEELPGDSGVEFTHDESVKKYFASSFEWCRKAQVIDLQAEGYWEELLDTTQPAIVVKDWYSGRSDAGCLYELTVKLLSEHENVLAEFSSGQVAVPQDSDGGGWMEISHTFTDYGPGVRFVRFEHGGQDSVYWKGWFGARVTNSSVWVEP [FBXO2]
(A) -0.047

(Q) Identify the reported solubility in G1/S (log2) for the following entry. MSLFGTTSGFGTSGTSMFGSATTDNHNPMKDIEVTSSPDDSIGCLSFSPPTLPGNFLIAGSWANDVRCWEVQDSGQTIPKAQQMHTGPVLDVCWSDDGSKVFTASCDKTAKMWDLSSNQAIQIAQHDAPVKTIHWIKAPNYSCVMTGSWDKTLKFWDTRSSNPMMVLQLPERCYCADVIYPMAVVATAERGLIVYQLENQPSEFRRIESPLKHQHRCVAIFKDKQNKPTGFALGSIEGRVAIHYINPPNPAKDNFTFKCHRSNGTNTSAPQDIYAVNGIAFHPVHGTLATVGSDGRFSFWDKDARTKLKTSEQLDQPISACCFNHNGNIFAYASSYDWSKGHEFYNPQKKNYIFLRNAAEELKPRNKK [RAE1]
(A) -0.0787

(Q) Please indicate solubility in G1/S (log2) recorded for MKSSGLFPFLVLLALGTLAPWAVEGSGKSFKAGVCPPKKSAQCLRYKKPECQSDWQCPGKKRCCPDTCGIKCLDPVDTPNPTRRKPGKCPVTYGQCLMLNPPNFCEMDGQCKRDLKCCMGMCGKSCVSPVKA [SLPI]
(A) -0.403

----------
solubility in G1/S (log2) listing for selected sequences.
- Tested on: HeLa Kyoto
- MEASUREMENT_PROTOCOL: solubility in G1/S (NP-40 vs SDS abundance) (log2 ratio); higher = more soluble
- CONDITION_PARAMETERS: cell cycle stage: G1/S

(Q) Tell me its solubility in G1/S (log2) given MAAQRPLRVLCLAGFRQSERGFREKTGALRKALRGRAELVCLSGPHPVPDPPGPEGARSDFGSCPPEEQPRGWWFSEQEADVFSALEEPAVCRGLEESLGMVAQALNRLGPFDGLLGFSQGAALAALVCALGQAGDPRFPLPRFILLVSGFCPRGIGFKESILQRPLSLPSLHVFGDTDKVIPSQESVQLASQFPGAITLTHSGGHFIPAAAPQRQAYLKFLDQFAE [OVCA2] as the entry.
(A) 0.171

(Q) For the sequence MEVTGVSAPTVTVFISSSLNTFRSEKRYSRSLTIAEFKCKLELLVGSPASCMELELYGVDDKFYSKLDQEDALLGSYPVDDGCRIHVIDHSGARLGEYEDVSRVEKYTISQEAYDQRQDTVRSFLKRSKLGRYNEEERAQQEAEAAQRLAEEKAQASSIPVGSRCEVRAAGQSPRRGTVMYVGLTDFKPGYWIGVRYDEPLGKNDGSVNGKRYFECQAKYGAFVKPAVVTVGDFPEEDYGLDEI [TBCB] , give its measured solubility in G1/S (log2) value.
(A) 0.266

(Q) Answer with the recorded solubility in G1/S (log2) for the sequence listed here: MSADAAAGAPLPRLCCLEKGPNGYGFHLHGEKGKLGQYIRLVEPGSPAEKAGLLAGDRLVEVNGENVEKETHQQVVSRIRAALNAVRLLVVDPETDEQLQKLGVQVREELLRAQEAPGQAEPPAAAEVQGAGNENEPREADKSHPEQRELRPRLCTMKKGPSGYGFNLHSDKSKPGQFIRSVDPDSPAEASGLRAQDRIVEVNGVCMEGKQHGDVVSAIRAGGDETKLLVVDRETDEFFKKCRVIPSQEHLNGPLPVPFTNGEIQKENSREALAEAALESPRPALVRSASSDTSEELNSQDSPPKQDSTAPSSTSSSDPILDFNISLAMAKERAHQKRSSKRAPQMDWSKKNELFSNL [SLC9A3R1]
(A) 0.536

----------
- Test system: HeLa Kyoto
- MEASUREMENT_PROTOCOL: solubility change mitosis vs G1/S (difference of NP-40 vs SDS log2 ratios) (log2 ratio difference); higher = more soluble in mitosis
OBSERVATION_TYPE: solubility change mitosis (log2)

Look over these answered cases.
sequence_entry="MQREEKQLEASLDALLSQVADLKNSLGSFICKLENEYGRLTWPSVLDSFALLSGQLNTLNKVLKHEKTPLFRNQVIIPLVLSPDRDEDLMRQTEGRVPVFSHEVVPDHLRTKPDPEVEEQEKQLTTDAARIGADAAQKQIQSLNKMCSNLLEKISKEERESESGGLRPNKQTFNPTDTNALVAAVAFGKGLSNWRPSGSSGPGQAGQPGAGTILAGTSGLQQVQMAGAPSQQQPMLSGVQMAQAGQPGKMPSGIKTNIKSASMHPYQR [MED8]" measurement_target="HeLa Kyoto" observation_type="solubility change mitosis (log2)" reported_measurement=0.105
sequence_entry="MPQYQTWEEFSRAAEKLYLADPMKARVVLKYRHSDGNLCVKVTDDLVCLVYKTDQAQDVKKIEKFHSQLMRLMVAKEARNVTMETE [SRP9]" measurement_target="HeLa Kyoto" observation_type="solubility change mitosis (log2)" reported_measurement=0.394

Let us examine a further case.
(Q) Fill in: solubility change mitosis (log2) on HeLa Kyoto, entry MSQSRHRAEAPPLEREDSGTFSLGKMITAKPGKTPIQVLHEYGMKTKNIPVYECERSDVQIHVPTFTFRVTVGDITCTGEGTSKKLAKHRAAEAAINILKANASICFAVPDPLMPDPSKQPKNQLNPIGSLQELAIHHGWRLPEYTLSQEGGPAHKREYTTICRLESFMETGKGASKKQAKRNAAEKFLAKFSNISPENHISLTNVVGHSLGCTWHSLRNSPGEKINLLKRSLLSIPNTDYIQLLSEIAKEQGFNITYLDIDELSANGQYQCLAELSTSPITVCHGSGISCGNAQSDAAHNALQYLKIIAERK [PRKRA]
(A) 0.0942
